All values here come from patent US12570659B2.

What Ratio of JAK3 IC50 to IRAK4 IC50 was measured for each of the following?
biological target: JAK3 kinase (Homo sapiens (Human)); experiment: JAK3 Homogeneous Time Resolved Fluorescence (HTRF) Assay; format: binding; conditions: selectivity for IRAK4 over JAK3

Observed Ratio of JAK3 IC50 to IRAK4 IC50, JAK3 kinase (Homo sapiens (Human)), CC(C)(O)[C@H](F)CNC(=O)c1cnc2cc(-c3ccncc3F)nn2c1NCCC1CCCCO1 (some centres unmarked) [Example 160] : >1111

Here Cc1cnccc1-c1cc2c(NC(C)C)c(C(=O)NCCC(C)(C)O)cnn2c1 [Example 72] was tested on JAK3 kinase (Homo sapiens (Human)), and its Ratio of JAK3 IC50 to IRAK4 IC50 came to >714

I looked up CC(C)Nc1c(C(=O)N[C@H]2CC[C@H](O)CC2)cnn2cc(-c3cccnc3)cc12 [Example 58] and its Ratio of JAK3 IC50 to IRAK4 IC50 for JAK3 kinase (Homo sapiens (Human)) was >926

Summary line: CC(C)(O)[C@H](F)CNC(=O)c1cnc2cc(-c3cccnc3)nn2c1N[C@H]1CCC[C@H]1O [Example 139] , JAK3 kinase (Homo sapiens (Human)), reported Ratio of JAK3 IC50 to IRAK4 IC50 = >200

Cc1cc(F)ncc1-c1cc2c(NC(C)C)c(C(=O)N[C@H]3CC[C@H](C(N)=O)CC3)cnn2c1 [Example 88] on JAK3 kinase (Homo sapiens (Human)) gives Ratio of JAK3 IC50 to IRAK4 IC50 = >6579

====

target: IRAK4 (Homo sapiens (Human))
Sequence (Q9NWZ3 whole entry, species assumed): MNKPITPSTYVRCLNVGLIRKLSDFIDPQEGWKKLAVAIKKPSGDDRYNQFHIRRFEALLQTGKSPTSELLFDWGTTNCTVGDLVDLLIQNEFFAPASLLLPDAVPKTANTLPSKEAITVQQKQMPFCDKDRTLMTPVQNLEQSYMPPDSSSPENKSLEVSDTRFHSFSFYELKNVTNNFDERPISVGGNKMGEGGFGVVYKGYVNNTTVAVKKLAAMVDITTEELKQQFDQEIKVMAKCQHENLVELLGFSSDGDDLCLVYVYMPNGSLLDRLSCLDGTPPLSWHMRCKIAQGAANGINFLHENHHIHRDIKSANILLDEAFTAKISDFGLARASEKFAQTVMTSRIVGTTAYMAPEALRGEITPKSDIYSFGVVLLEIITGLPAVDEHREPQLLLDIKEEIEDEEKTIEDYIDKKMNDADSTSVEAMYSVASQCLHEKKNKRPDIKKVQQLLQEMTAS
Threshold 70 nM. IC50 below it: label 1. IC50 at it or above: label 0.

Q. Is IC50 of CC(C)(O)CCNc1c(C(=O)NC[C@@H](F)C(C)(C)O)cnn2cc(-c3cccnc3)cc12 [Example 25] strictly below 70 nM?
A. label 0

Q. Does CC(C)Nc1c(C(=O)NC[C@@H](F)C(C)(C)O)cnn2cc(-c3cccnc3F)nc12 [Example 103] have IC50 strictly under 70 nM?
A. label 1

Q. Quick check: IC50 of CNC(=O)c1cnc2cc(-c3ccnc(N4CCOCC4)c3)nn2c1NC(C)C [Example 119] under 70 nM?
A. label 0

Q. Identify whether the molecule CC(C)Nc1c(C(=O)NC[C@@H](F)C(C)(C)O)cnn2cc(Nc3ncc(C#N)cc3Cl)cc12 [Example 42] records IC50 below 70 nM.
A. label 1

Q. Input CC(=O)N[C@H]1CC[C@H](NC(=O)c2cnn3cc(-c4cnc(F)cc4C)cc3c2NC(C)C)CC1 [Example 75] ; condition: IC50 strictly below 70 nM. Does it hold?
A. label 1

Q. Does this molecule meet the criterion IC50 < 70 nM? CC(C)Nc1c(C(=O)NC2CCN(S(C)(=O)=O)CC2)cnn2cc(-c3ccc(F)nc3)cc12 [Example 85]
A. label 1

Q. Quick check: IC50 of CC(C)Nc1c(C(=O)NC[C@@H](F)C(C)(C)O)cnn2cc(-c3cccc(CN4CCOCC4)c3)cc12 [Example 14] under 70 nM?
A. label 0

====

molecular target: JAK3 kinase (Homo sapiens (Human), UniProt P52333); experiment: JAK3 Homogeneous Time Resolved Fluorescence (HTRF) Assay; format: binding; conditions: competition binding with fluorescein-labeled ATP competitive probe
Sequence (P52333 whole entry): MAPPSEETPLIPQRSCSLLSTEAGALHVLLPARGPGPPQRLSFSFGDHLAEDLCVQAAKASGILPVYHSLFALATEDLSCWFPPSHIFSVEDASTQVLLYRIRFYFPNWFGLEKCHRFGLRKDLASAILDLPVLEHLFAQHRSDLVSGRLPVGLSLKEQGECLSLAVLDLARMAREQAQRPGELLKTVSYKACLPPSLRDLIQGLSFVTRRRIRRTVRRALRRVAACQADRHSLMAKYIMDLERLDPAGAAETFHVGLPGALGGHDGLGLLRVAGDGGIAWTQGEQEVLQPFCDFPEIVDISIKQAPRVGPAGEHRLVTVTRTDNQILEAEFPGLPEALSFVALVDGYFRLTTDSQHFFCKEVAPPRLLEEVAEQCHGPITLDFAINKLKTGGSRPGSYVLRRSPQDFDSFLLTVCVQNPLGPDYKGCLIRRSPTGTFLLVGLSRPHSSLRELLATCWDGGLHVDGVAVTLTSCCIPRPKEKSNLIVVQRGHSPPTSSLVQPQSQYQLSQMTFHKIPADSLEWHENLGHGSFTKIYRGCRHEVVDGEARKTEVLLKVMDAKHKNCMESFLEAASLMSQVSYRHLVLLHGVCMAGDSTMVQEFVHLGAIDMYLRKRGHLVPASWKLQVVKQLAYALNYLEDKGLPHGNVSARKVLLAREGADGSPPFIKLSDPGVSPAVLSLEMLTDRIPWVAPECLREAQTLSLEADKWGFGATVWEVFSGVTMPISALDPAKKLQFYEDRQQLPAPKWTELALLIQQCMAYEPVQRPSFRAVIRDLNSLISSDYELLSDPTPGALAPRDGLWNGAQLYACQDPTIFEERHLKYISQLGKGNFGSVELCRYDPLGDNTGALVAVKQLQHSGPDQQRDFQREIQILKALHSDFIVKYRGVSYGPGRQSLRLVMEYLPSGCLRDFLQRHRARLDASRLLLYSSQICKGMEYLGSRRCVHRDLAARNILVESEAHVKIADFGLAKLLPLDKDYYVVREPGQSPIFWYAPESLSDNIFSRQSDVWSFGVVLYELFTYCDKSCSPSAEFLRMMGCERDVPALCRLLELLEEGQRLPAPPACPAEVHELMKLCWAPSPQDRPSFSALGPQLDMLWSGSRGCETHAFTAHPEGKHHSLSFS
Measure: IC50

Sample CC(C)Nc1c(C(=O)NCCN2CCOCC2)cnn2cc(-c3ccncc3F)cc12 ; IC50 observed: 7 µM

Kindly note the recorded IC50 for CC(C)(O)[C@H](F)CNC(=O)c1cnn2cc(-c3ccc(C#N)c(F)c3)cc2c1NC1CCOCC1 , which is > 50 µM

So, CC(C)Nc1c(C(=O)NC[C@@H](F)C(C)(C)O)cnc2cc(-c3ccncc3)nn12 ? Its IC50 was > 10 µM

Entry CC(=O)N1CCC(NC(=O)c2cnn3cc(-c4ccncc4F)nc3c2NC(C)C)CC1 — recorded IC50 = > 10 µM

Note to self: IC50 recorded for CC(C)(O)[C@H](F)CNC(=O)c1cnn2cc(-c3cccnc3)cc2c1NC1CCOCC1 was > 50 µM

IC50 measured on CC(C)Nc1c(C(=O)NC[C@@H](F)C(C)(C)O)cnn2cc(Nc3ccc(C#N)cn3)cc12 = > 50 µM

The compound listed as COc1cc(-c2cc3c(NC(C)C)c(C(=O)N[C@H]4CC[C@H](O)CC4)cnn3c2)c(F)cn1 has a reported IC50 of > 50 µM

Entry CC(C)Nc1c(C(=O)NC[C@@H](F)C(C)(C)O)cnn2cc(Nc3ncc(C#N)cc3Cl)cc12 , IC50 reported as > 50 µM

// sample CC(C)Nc1c(C(=O)NC[C@@H](F)C(C)(C)O)cnn2cc(-c3cnoc3)cc12 , its IC50 was > 50 µM

Per the record, CNC(=O)[C@H]1CC[C@H](NC(=O)c2cnn3cc(-c4ccncc4F)cc3c2NC(C)C)CC1 has IC50 of > 50 µM

# compound CC(C)(O)CCNc1c(C(=O)NC[C@@H](F)C(C)(C)O)cnn2cc(-c3cccnc3F)cc12 ; its IC50 = > 50 µM

The compound listed as CC(C)(O)[C@H](F)CNC(=O)c1cnn2cc(-c3cccnc3)cc2c1NC1CC1 has a reported IC50 of > 50 µM

Given item COC(=O)c1cncc(-c2cc3ncc(C(=O)NC[C@@H](F)C(C)(C)O)c(NC(C)C)n3n2)c1 , the value recorded as its IC50 is > 50 µM

// IC50 value for CC(C)Nc1c(C(=O)NC[C@@H](F)C(C)(C)O)cnc2cc(-c3ncco3)nn12 : > 50 µM

Query CC(C)Nc1c(C(=O)NC[C@@H](F)C(C)(C)O)cnn2cc(-c3cn[nH]c3)cc12 yields IC50 of > 10 µM

Input COC(=O)Nc1cc(-c2cc3c(NC(C)C)c(C(=O)NC[C@@H](F)C(C)(C)O)cnn3c2)ccn1 . Output IC50: > 50 µM

IC50 reading for Cc1cc(F)ncc1-c1cc2c(NC(C)C)c(C(=O)NC3CCN(S(C)(=O)=O)CC3)cnn2c1 : > 50 µM

So for Cc1cncc(-c2cc3ncc(C(=O)NC[C@@H](F)C(C)(C)O)c(NC(C)C)n3n2)c1 , the logged IC50 turned out to be > 50 µM

Record summary for CC(C)Nc1c(C(=O)NC[C@@H](F)C(C)(C)O)cnc2cc(-c3cncc(C(C)(C)O)c3)nn12 : reported IC50 = > 10 µM
